LogP values for the compounds below.
assay: Log P by HPLC on reversed phase columns (EEC directive 79/831 Annex V.A8); type: physicochemical; conditions: method [a]

Field: example entries. Status: answers known.
{"compound": "COC(=O)CNC(=O)c1sc(Cl)c(Br)c1C#N [1.0584]", "LogP": "2.20^[a]"}
{"compound": "CCOC(=O)C(Cc1ccccc1)NC(=O)c1sc(Br)c(Br)c1Cl (stereo not shown) [1.0149]", "LogP": "5.00^[a]"}
{"compound": "CCSC(=O)C1(NC(=O)c2sc(Br)c(Cl)c2C)CC1 [1.0252]", "LogP": "3.74^[a]"}

-- ask Using the record for O=C(CNC(=O)c1sc(Br)c(Br)c1F)OC1CCCC1 [1.0862] , state its measured LogP.
-- reply 3.84^[a]

-- ask Using the record for CC(C)OC(=O)C(NC(=O)c1sc(Br)c(Br)c1F)C1CC1 (racemic) [1.0923] , state its measured LogP.
-- reply 4.40^[a]

-- ask Using the record for O=C(O)CNC(=S)c1sc(Br)c(Br)c1Cl [1.0861] , state its measured LogP.
-- reply 3.08^[a]

-- ask Using the record for CCOC(=O)C(CCSC)NC(=O)c1cc(Cl)c(Br)s1 (stereo not shown) [1.0237] , state its measured LogP.
-- reply 3.59^[a]

-- ask Using the record for NC(=S)C1(NC(=O)c2sc(Br)c(Br)c2F)CC1 [1.0900] , state its measured LogP.
-- reply 2.42^[a]

-- ask Using the record for CCOC(=O)C1(NC(=O)c2sc(Br)c(Br)c2F)CSC1 [1.0795] , state its measured LogP.
-- reply 3.59^[a]

-- ask Using the record for CCOC(=O)C(COC)NC(=O)c1sc(Br)c(Br)c1F (stereo not shown) [1.0135] , state its measured LogP.
-- reply 3.46^[a]

* * *

LogP values for the compounds below.
test: Log P by HPLC on reversed phase columns (EEC directive 79/831 Annex V.A8); format: physicochemical; details: method [a]

Field: example entries. Status: answers known.
{"compound": "CCOC(=O)CNC(=O)c1sc(Cl)c(C)c1Cl [1.0893]", "measurementKind": "LogP", "endpointResult": "3.07^[a]"}
{"compound": "CCOC(=O)[C@H](CO)NC(=O)c1sc(Cl)c(Br)c1C [1.0842]", "measurementKind": "LogP", "endpointResult": "2.62^[a]"}
{"compound": "O=C(NC1(C(=O)O)CC1)c1sc(Cl)c(Br)c1Br [1.0265]", "measurementKind": "LogP", "endpointResult": "2.41^[a]"}
{"compound": "COC(=O)C(CC(F)F)NC(=O)c1sc(Br)c(Br)c1Cl (stereo not shown) [1.0146]", "measurementKind": "LogP", "endpointResult": "3.62^[a]"}
{"compound": "CCOC(=O)CNC(=O)c1sc(Br)c(Br)c1Cl [1.0142]", "measurementKind": "LogP", "endpointResult": "3.30^[a]"}
{"compound": "COC(=O)CNC(=O)c1cc(Cl)c(F)s1 [1.0906]", "measurementKind": "LogP", "endpointResult": "1.90^[a]"}
{"compound": "COC(=O)C(CCSC(C)=O)NC(=O)c1sc(Br)c(Br)c1F (stereo not shown) [1.0553]", "measurementKind": "LogP", "endpointResult": "3.13^[a]"}
{"compound": "CCOC(=O)CNC(=O)c1sc(C)c(Cl)c1Cl [1.0848]", "measurementKind": "LogP", "endpointResult": "2.82^[a]"}

-- ask Using the record for COC(=O)C[C@H](NC(=O)c1sc(Br)c(Br)c1Cl)C(=O)OC [1.0546] , state its measured LogP.
-- reply 3.33^[a]

-- ask Using the record for CC(C)(C)OC(=O)C1(NC(=O)c2sc(Br)c(Br)c2Cl)CC1 [1.0898] , state its measured LogP.
-- reply 5.28^[a]

* * *

assay: Log P by HPLC on reversed phase columns (EEC directive 79/831 Annex V.A8); type: physicochemical; settings: method [a]: LC-UV, acidic range, 0.1% formic acid in water and acetonitrile
LogP values for the molecules below.

Field: example entries. Status: answers known.
{"molecule": "O=C(O)c1sc(Br)c(Br)c1C(F)(F)F [II.004]", "LogP": "2.44^[a]"}
{"molecule": "N#Cc1cc(C(=O)O)sc1Br [II.100]", "LogP": "1.48^[a]"}
{"molecule": "COC(=O)c1sc(C#N)c(Br)c1C [II.051]", "LogP": "3.19^[a]"}
{"molecule": "Cc1sc(C(=O)OCC(C)C)c(F)c1Br [II.024]", "LogP": "4.77^[a]"}
{"molecule": "O=C1CC(NC(=O)c2cc(Cl)c(Br)s2)CN1 (stereo not drawn) [I.0221]", "LogP": "1.71^[a]"}

-- ask Using the record for Cc1c(C(=O)N[C@H]2CCOC2=O)sc(C#N)c1Br [I.0761] , state its measured LogP.
-- reply 1.94^[a]

* * *

LogP values for the compounds below.
assay: Log P by HPLC on reversed phase columns (EEC directive 79/831 Annex V.A8); type: physicochemical; details: method marked [a]

-- ask Using the record for COC(=O)C(NC(=O)c1sc(F)c(Br)c1Br)C1CC1 (stereo not shown) [1.0710] , state its measured LogP.
-- reply 3.55^[a]

-- ask Using the record for COC(=O)[C@H](CCSC)NC(=O)c1sc(Cl)c(Br)c1C [1.0767] , state its measured LogP.
-- reply 3.74^[a]

-- ask Using the record for CCOC(=O)C1(NC(=O)c2sc(Br)c(Br)c2C(F)(F)F)CCC1 [1.0372] , state its measured LogP.
-- reply 3.67^[a]

-- ask Using the record for COC(=O)C1(NC(=S)c2sc(C#N)c(Cl)c2C)CC1 [1.0290] , state its measured LogP.
-- reply 3.04^[a]

* * *

experiment: Log P by HPLC on reversed phase columns (EEC directive 79/831 Annex V.A8); type: physicochemical; conditions: method marker [a] given with each value; Table 1.1, compounds of formula (I)
LogP values for the molecules below.

{"molecule": "COC(=O)C(NC(=O)c1sc(Br)c(Br)c1Cl)c1cccs1 (racemic)", "LogP": "4.25^[a]"}

-- ask Using the record for COC(=O)C(C)(C)NC(=O)c1sc(C#N)c(Br)c1Br , state its measured LogP.
-- reply 3.34^[a]

-- ask Using the record for CNC(=O)CNC(=O)c1sc(Br)c(Br)c1Cl , state its measured LogP.
-- reply 2.07^[a]

-- ask Using the record for CCOC(=O)C1(NC(=O)c2sc(Br)c(Br)c2C#N)CSC1 , state its measured LogP.
-- reply 3.15^[a]

-- ask Using the record for CCOC(=O)C(C)(C)NC(=O)c1sc(Cl)c(Cl)c1Br , state its measured LogP.
-- reply 4.24^[a]

-- ask Using the record for C[Si](C)(C)COC(=O)CNC(=O)c1sc(Br)c(Br)c1F , state its measured LogP.
-- reply 4.40^[a]

-- ask Using the record for C#CCOC(=O)CNC(=O)c1sc(C#N)c(Br)c1C , state its measured LogP.
-- reply 2.43^[a]

-- ask Using the record for CCOC(=O)CN(C(=O)c1sc(Br)c(Br)c1F)C1CC1 , state its measured LogP.
-- reply 3.64^[a]

-- ask Using the record for CC(C)(NC(=O)c1sc(Cl)c(Cl)c1Br)C(=O)O , state its measured LogP.
-- reply 2.80^[a]

-- ask Using the record for Cc1c(C(=O)NCC(=O)OC2CC2)sc(C#N)c1Br , state its measured LogP.
-- reply 2.54^[a]

* * *

LogP values for the molecules below.
experiment: Log P by HPLC on reversed phase columns (EEC directive 79/831 Annex V.A8); format: physicochemical; details: method [a]: LC-UV, acidic range, 0.1% formic acid in water and acetonitrile

{"molecule": "N#CC1(NC(=O)c2sc(Br)c(Br)c2Cl)CCC(c2ccccc2)CC1 (centres unmarked) [I.0870]", "LogP": "4.97^[a]"}
{"molecule": "O=C(N[C@H]1CCCNC1=O)c1sc(Cl)c(Cl)c1Br [I.0944]", "LogP": "2.30^[a]"}
{"molecule": "CCOC(=O)c1sc(Br)c(I)c1C [II.031]", "LogP": "5.03^[a]"}
{"molecule": "O=C(NC1CCOC1=O)c1cc(Cl)c(Br)s1 (centres unmarked) [I.0220]", "LogP": "2.09^[a]"}
{"molecule": "O=C(NC1CCCNC1=O)c1sc(Br)c(Br)c1F (centres unmarked) [I.0061]", "LogP": "2.01^[a]"}

-- ask Using the record for O=C(NC1CCOC1=O)c1sc(Br)c(Br)c1Cl (centres unmarked) [I.1031] , state its measured LogP.
-- reply 2.58^[a]

-- ask Using the record for COC(=O)[C@H](Cc1ccccc1)NC(=O)[C@H](CC(=O)O)NC(=O)c1sc(Br)c(Br)c1Cl [I.0488] , state its measured LogP.
-- reply 3.20^[a]

FYI, the data here is from patent US12642270B2.
